Source of measurements: PubChem BioAssay AID504382

Test: IANBD-channel fluorescence artefacts in buffer – biochemical, artefact control for cardiac RTF calcium sensitizer project, confirmation (AID 504382)
Settings: IANBD fluorescence interference counterscreen, EC20 Ca2+, at 7.2 µM
The whole screen tested about 2,500 compounds, of which about 460 (18%) were called active.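 How the source made its calls: active means mean activation above a cutoff of low control average plus 3 SD from the earlier screen (cut at about 12% in these data); inactive means the rest.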 These entries were drawn from the full list.
Outcome codes: 1 = active, 0 = inactive

> print(dat)
                                   compound  class.label
1  COCCNC(=O)c1c(N)n(Cc2ccco2)c2nc3ccccc3nc12            0
2  CCOC(=O)c1cc(CC)sc1/N=C/c1c(O)[nH]c(=S)[nH]c1=O            0
3     C=Cn1ccnc1P(=S)(c1nccn1C=C)c1nccn1C=C            0
4  C[C@]12CCC(=O)C=C1CC[C@@H]1[C@@H]2CC[C@]2(C)C(=O)CC[C@@H]12            0
5  Cc1cccc(-n2c(O)c(/C=C/C=Nc3ccccc3)c(=O)[nH]c2=O)c1            1
6  CCCCn1c(O)c(C(=O)/C=C/c2c[nH]c3ccccc23)c(=O)[nH]c1=O            0
7  CCC1(C)OC(c2ccccc2)=C/C(=C/C=C2C(=O)NC(=O)NC2=O)O1 (configuration not stated)            0
